Target or system UniProt Q86V86: recorded IC50 listed per item.

Q) Record request: IC50 value, item C[C@@H]1C[C@H](N)CN(c2ccncc2NC(=O)c2ccc3occ(-c4cc(F)nc(F)c4)c3n2)C1
A) > 40 nM

Q) Subsequent entry: C[C@@H]1C[C@H](N)CN(c2ccncc2NC(=O)c2ccc3sc(Cc4ccccc4)cc3n2)C1
A) ≤ 10 nM

Q) Subsequent entry: C[C@@H]1C[C@H](N)CN(c2ccncc2NC(=O)c2ccc3occ(C4CC4)c3n2)C1
A) ≤ 10 nM

Let us move to another entry and its IC50.
Q) Record request: IC50 value, item CCc1cc2nc(C(=O)Nc3cnccc3N3C[C@@H](N)[C@H](O)[C@@H](C)C3)ccc2s1
A) ≤ 10 nM
